Data origin: the supplement of paper PMC10849652

For each entry below, report its log2 fold change value.
# system_name: ZBTB43 (UniProt O43298)
# Sequence (O43298 whole entry, looked up): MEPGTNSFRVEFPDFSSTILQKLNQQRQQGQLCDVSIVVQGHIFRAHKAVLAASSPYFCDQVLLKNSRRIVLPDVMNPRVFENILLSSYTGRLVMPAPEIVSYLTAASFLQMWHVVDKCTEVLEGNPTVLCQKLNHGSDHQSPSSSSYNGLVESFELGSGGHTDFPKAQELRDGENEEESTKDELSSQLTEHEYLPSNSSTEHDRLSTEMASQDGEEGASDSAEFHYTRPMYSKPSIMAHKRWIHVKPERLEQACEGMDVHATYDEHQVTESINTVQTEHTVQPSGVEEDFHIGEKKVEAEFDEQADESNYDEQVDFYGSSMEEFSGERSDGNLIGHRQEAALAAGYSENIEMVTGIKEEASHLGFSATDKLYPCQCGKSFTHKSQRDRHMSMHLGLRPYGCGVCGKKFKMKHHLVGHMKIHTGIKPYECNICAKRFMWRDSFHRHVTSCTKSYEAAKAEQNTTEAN
# experimental_protocol: log2 fold change, soluble protein after heating vs DMSO (PISA); higher = thermal stabilisation; K562 cells, 10 uM, 30 min; active = over 0.2 and 3.5 SD of the protein, either way, in both replicates (recomputed)
Targets with a hit are over-represented here; the source holds about 7,900 in all. About 0.6% of all pairs of compound and target were hits.
One number for each entry.

# count of solved cases: 5
substance_smiles	log2 fold change
CNC(=O)c1ccc(Nc2ncc(C(F)(F)F)c(NCc3nccnc3N(C)S(C)(=O)=O)n2)cc1	0.063
C[C@@H](N)c1ccc(C(=O)Nc2ccnc3[nH]ccc23)cc1	-0.013
Nc1ccccc1NC(=O)c1ccc(CNC(=O)OCc2cccnc2)cc1	-0.091
c1cn2cc(-c3ccc4cn[nH]c4c3)nc(Nc3ccc(N4CCOCC4)cc3)c2n1	0.137
CO[C@H]1C[C@@H]2CC[C@@H](C)[C@@](O)(O2)C(=O)C(=O)N2CCCC[C@H]2C(=O)O[C@H]([C@H](C)C[C@@H]2CC[C@H](n3cnnn3)[C@H](OC)C2)CC(=O)[C@H](C)/C=C(\C)[C@@H](O)[C@@H](OC)C(=O)[C@H](C)C[C@H](C)/C=C/C=C/C=C/1C	-0.036

-- ask If you can, please state the reported log2 fold change value of "CN1CCN(CCOc2cc(OC3CCOCC3)c3c(Nc4c(Cl)ccc5c4OCO5)ncnc3c2)CC1" .
-- reply -0.147
